assay system: GSPT1 protein (Homo sapiens)
Construct: The whole cell lysate was prepared using a RIPA lysis buffer; endogenous in cells; host or cells: NB-4 cells
method summary: Degradation of GSPT1 protein in NB-4 cells (Western blot)
Assay type: cell-based
condition context: NB-4 cells, compound 1 μM, 6 h; read-out: GSPT1 degradation
In this section, each of the molecules is paired with its reported inhibition at 1 µM.

Known results for molecules:
>>> result("COc1cc(C)ccc1C(=O)NCc1ccc2c(c1F)CN(C1CCC(=O)NC1=O)C2=O (centres unmarked)")
"< 25%"
>>> result("O=C1CCC(N2Cc3c(ccc(CNC(=O)c4ccc5c(c4)CC5)c3F)C2=O)C(=O)N1 (centres unmarked)")
"> 80%"
>>> result("CCCc1ccc(CNCc2ccc3c(c2F)CN(C2CCC(=O)NC2=O)C3=O)cc1 (centres unmarked)")
"> 80%"
>>> result("O=C1CCC(N2Cc3c(ccc(CNC(=O)c4ccc(N5CCCC5)cc4)c3F)C2=O)C(=O)N1 (centres unmarked)")
"> 80%"

// moving on: another record for inhibition at 1 µM
Task item: Recorded inhibition at 1 µM for O=C1CCC(N2Cc3c(ccc(CNC(=O)c4ccc(Cl)cc4Cl)c3F)C2=O)C(=O)N1 (centres unmarked) with GSPT1 protein (Homo sapiens), please?
Reply: > 80%

* * *

// reported inhibition at 1 µM for each item listed
assay system: GSPT1 protein (Homo sapiens)
Construct: The whole cell lysate was prepared using a RIPA lysis buffer; endogenous in cells; host or cells: NB-4 cells
method summary: Degradation of GSPT1 protein in NB-4 cells (Western blot)
Format: cell-based
condition context: NB-4 cells, compound 1 μM, 6 h; read-out: GSPT1 degradation
Experimental: 150 μL of DMSO and the compounds (1 μM) were added, and the mixture was incubated in an incubator at 5% CO2 and 37° C. for 6 h. The cells were centrifuged, and the culture medium was discarded. PBS was added for washing and then discarded. The whole cell lysate was prepared using a RIPA lysis buffer containing a protease inhibitor cocktail and a phosphatase inhibitor, and incubated on ice for 30 min. The mixture was centrifuged, and the cell debris was discarded. […]

# example entries with known answers
>>> result("Nc1cc(C(=O)NCc2ccc3c(c2F)CN(C2CCC(=O)NC2=O)C3=O)ccc1Cl (stereo not shown) [FDAB-113]")
"> 80%"
>>> result("O=C1CCC(N2Cc3c(ccc(CNC(=O)c4cc5ccccc5o4)c3Cl)C2=O)C(=O)N1 (stereo not shown) [FDAB-67]")
"> 80%"
>>> result("[2H]c1c([2H])c([2H])c(C(=O)NCc2ccc3c(c2F)CN(C2CCC(=O)NC2=O)C3=O)c([2H])c1[2H] (stereo not shown) [FDAB-88]")
"< 25%"

Task item: Which inhibition at 1 µM value belongs to O=C1CCC(N2Cc3c(ccc(CNC(=O)c4cc5ccccc5[nH]4)c3Cl)C2=O)C(=O)N1 (stereo not shown) [FDAB-75] ?
Reply: 50 to 80%

Task item: Which measured inhibition at 1 µM value corresponds to O=C(CCSC(=S)SCc1ccccc1)NCc1ccc2c(c1F)CN(C1CCC(=O)NC1=O)C2=O (stereo not shown) [FDAB-161] ?
Reply: > 80%

Task item: Please give the measured inhibition at 1 µM for this molecule: O=C(Cc1ccc(Cl)cc1Cl)NCc1ccc2c(c1F)CN(C1CCC(=O)NC1=O)C2=O (stereo not shown) [FDAB-131]
Reply: > 80%

Task item: What measured inhibition at 1 µM goes with Cc1ccc(C(=O)NCc2ccc3c(c2F)CN(C2CCC(=O)NC2=O)C3=O)c(F)c1 (stereo not shown) [FDAB-121] ?
Reply: > 80%

Task item: Given the molecule O=C1CCC(N2Cc3cc(CNC(=O)C4CCCC4)c(F)cc3C2=O)C(=O)N1 (stereo not shown) [FDAB-41] , what is its reported inhibition at 1 µM?
Reply: < 25%

* * *

assay system: GSPT1 protein (Homo sapiens, UniProt P15170)
Construct: The whole cell lysate was prepared using a RIPA lysis buffer; endogenous in cells; host or cells: NB-4 cells
Sequence (P15170 whole entry): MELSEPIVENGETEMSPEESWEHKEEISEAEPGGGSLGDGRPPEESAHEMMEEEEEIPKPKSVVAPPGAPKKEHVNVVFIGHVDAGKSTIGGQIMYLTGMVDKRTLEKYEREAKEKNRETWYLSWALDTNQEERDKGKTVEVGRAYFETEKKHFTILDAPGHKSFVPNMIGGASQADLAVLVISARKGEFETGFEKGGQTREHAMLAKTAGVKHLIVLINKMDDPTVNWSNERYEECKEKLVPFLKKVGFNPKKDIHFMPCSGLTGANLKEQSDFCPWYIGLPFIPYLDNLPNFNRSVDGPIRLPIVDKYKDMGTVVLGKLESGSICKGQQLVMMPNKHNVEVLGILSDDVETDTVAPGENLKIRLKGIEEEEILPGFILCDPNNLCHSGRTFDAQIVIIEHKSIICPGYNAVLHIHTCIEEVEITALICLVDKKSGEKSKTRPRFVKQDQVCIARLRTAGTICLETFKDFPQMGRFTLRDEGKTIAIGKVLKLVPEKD
method summary: Degradation of GSPT1 protein in NB-4 cells (Western blot)
Format: cell-based
condition context: NB-4 cells, compound 1 μM, 6 h; read-out: GSPT1 degradation
Description: 150 μL of DMSO and the compounds (1 μM) were added, and the mixture was incubated in an incubator at 5% CO2 and 37° C. for 6 h. The cells were centrifuged, and the culture medium was discarded. PBS was added for washing and then discarded. The whole cell lysate was prepared using a RIPA lysis buffer containing a protease inhibitor cocktail and a phosphatase inhibitor, and incubated on ice for 30 min. The mixture was centrifuged, and the cell debris was discarded. […]
Recorded measurements of inhibition at 1 µM, one per entry

Previously resolved entries follow.
>>> result("O=C1CCC(N2Cc3c(ccc(CNC(=O)c4ccc(Cl)cc4F)c3F)C2=O)C(=O)N1 (centres unmarked) [FDAB-117]")
"> 80%"
>>> result("Cc1cc(C(=O)NCc2ccc3c(c2F)CN(C2CCC(=O)NC2=O)C3=O)cc(C)c1C (centres unmarked) [FDAB-92]")
"> 80%"
>>> result("O=C1CCC(N2Cc3cc(CNC(=O)c4ccc(F)cc4)c(F)cc3C2=O)C(=O)N1 (centres unmarked) [FDAB-26]")
"< 25%"
>>> result("O=C1CCC(N2Cc3c(ccc(CNC(=O)c4ccc5c(c4)C(=O)CC5)c3F)C2=O)C(=O)N1 (centres unmarked) [FDAB-106]")
"> 80%"
>>> result("NS(=O)(=O)c1cc(C(=O)NCc2ccc3c(c2F)CN(C2CCC(=O)NC2=O)C3=O)ccc1Cl (centres unmarked) [FDAB-115]")
"< 25%"

Task item: Please look up its inhibition at 1 µM: O=C1CCC(N2Cc3cc(CNC(=O)C4CC4)c(F)cc3C2=O)C(=O)N1 (centres unmarked) [FDAB-40]
Reply: < 25%

Task item: Recorded inhibition at 1 µM of O=C(Cc1cc2ccccc2s1)NCc1ccc2c(c1F)CN(C1CCC(=O)NC1=O)C2=O (centres unmarked) [FDAB-136] , please.
Reply: > 80%

Task item: So what does the record say about inhibition at 1 µM for O=C1CCC(N2Cc3c(ccc(CNC(=O)c4ccc(C(F)(F)F)cc4)c3F)C2=O)C(=O)N1 (centres unmarked) [FDAB-61] ?
Reply: > 80%

Cited source: patent US20250282746A1
